Measured IC50, listed per entry for reference.
- Test system: RBL-2H3 cells
- Test: Inhibition of serotonin liberation from IgE-sensitized, antigen-stimulated RBL-2H3 cells ([3H]-serotonin)
- Assay type: cell-based
- Condition description: Rattus norvegicus; IgE-sensitized RBL-2H3 cells stimulated with specific antigen; [3H]-labeled serotonin

| Smiles structure | IC50 [µM] |
| --- | --- |
| Cc1ccc2c(=O)c3ccccc3n(CCCNCc3ccccc3F)c2c1C | 3 |
| Cc1ccc2c(=O)c3ccccc3n(CCCNCc3ccccc3O)c2c1C | 1 |
| CCOC(=O)Cc1cccc2c1c(=O)c1ccc(C)c(C)c1n2CCCNCc1ccccc1 | 8 |
| Cc1cc(CNCCCn2c3ccccc3c(=O)c3ccc(C)c(C)c32)ccc1O | 4 |
| Cc1ccc2c(=O)c3c(CC(=O)O)cccc3n(CCCN(C)Cc3ccc(Cl)c(O)c3Cl)c2c1C | 6 |
| Cc1cc(CNCCCn2c3ccccc3c(=O)c3ccc(C)c(C)c32)cc(C)c1O | 7 |
| Cc1ccc2c(=O)c3c(CC(=O)O)cccc3n(CCCNCc3ccccc3F)c2c1C | 6 |
| Cc1ccc2c(=O)c3c(CC(=O)O)cccc3n(CCCNCc3ccc(F)cc3)c2c1C | 5 |
